Consider the following compounds and their measured IC50 readings.
# TARGET SYSTEM: PHD2 (EGLN1) (Homo sapiens (Human), UniProt Q9GZT9)
# Sequence (Q9GZT9 whole entry): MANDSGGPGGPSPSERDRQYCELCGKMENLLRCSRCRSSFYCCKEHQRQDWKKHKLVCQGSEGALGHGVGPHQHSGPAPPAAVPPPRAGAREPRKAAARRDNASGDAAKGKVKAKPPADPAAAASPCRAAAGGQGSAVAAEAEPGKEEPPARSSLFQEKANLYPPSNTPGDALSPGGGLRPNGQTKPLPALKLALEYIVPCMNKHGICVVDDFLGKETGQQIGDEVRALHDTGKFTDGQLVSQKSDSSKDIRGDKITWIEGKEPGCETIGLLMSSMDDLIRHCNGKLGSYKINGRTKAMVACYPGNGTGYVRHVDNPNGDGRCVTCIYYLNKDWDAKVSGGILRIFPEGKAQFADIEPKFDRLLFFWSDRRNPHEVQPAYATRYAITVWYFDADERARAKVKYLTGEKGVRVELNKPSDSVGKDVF
# PROTOCOL DESCRIPTION: HIF-PH assay (14CO2 capture), PHD2 enzyme inhibition
# Type: biochemical
# SETTINGS: Table 1; individual measurement; read-out: IC50 (μM) PHD2

COMPOUND: N#Cc1nc(C(=O)NCC[C@H](O)C(=O)O)c(O)c2ccc(Oc3ccccc3)cc12 [Compound 83]
RELATION QUALIFIER: =
IC50 (µM): 2.75

COMPOUND: N#Cc1nc(C(=O)NCC2(C(=O)O)CCC2)c(O)c2ccc(Oc3c(F)cccc3F)cc12 [Compound 26]
RELATION QUALIFIER: =
IC50 (µM): 5.43

COMPOUND: CC(C)(CNC(=O)c1nc(C#N)c2cc(OC3CCCCC3)ccc2c1O)C(=O)O [Compound 156]
RELATION QUALIFIER: =
IC50 (µM): 23.5

COMPOUND: C[C@](O)(CNC(=O)c1nc(C#N)c2cc(Oc3ccccc3)ccc2c1O)C(=O)O [Compound 73]
RELATION QUALIFIER: =
IC50 (µM): 3.38

COMPOUND: N#Cc1nc(C(=O)NCC[C@@H](NC(N)=O)C(=O)O)c(O)c2ccc(Oc3ccccc3)cc12 [Compound 55]
RELATION QUALIFIER: =
IC50 (µM): 9.1

COMPOUND: CC(CC(=O)O)NC(=O)c1nc(C#N)c2cc(Oc3ccccc3)ccc2c1O (stereo not drawn) [Compound 11]
RELATION QUALIFIER: =
IC50 (µM): 56.6

COMPOUND: COc1ccc(Oc2ccc3c(O)c(C(=O)NC[C@H](O)C(=O)O)ncc3c2)cc1 [Compound 103]
RELATION QUALIFIER: =
IC50 (µM): 4.78

COMPOUND: CC(C)(CNC(=O)c1nc(C#N)c2cc(S(=O)(=O)C3CCCCC3)ccc2c1O)C(=O)O [Compound 160]
RELATION QUALIFIER: =
IC50 (µM): 200

COMPOUND: O=C(O)CCCNC(=O)c1ncc2cc(NC(=O)Nc3ccccc3)ccc2c1O [Compound 119]
RELATION QUALIFIER: =
IC50 (µM): 72.3

COMPOUND: CC(C)(CNC(=O)c1nc(C#N)c2cc(Oc3ccccc3F)ccc2c1O)C(=O)O [Compound 41]
RELATION QUALIFIER: =
IC50 (µM): 9.56

COMPOUND: CC(C)(CNC(=O)c1nc(C#N)c2cc(CCc3ccccc3)ccc2c1O)C(=O)O [Compound 122]
RELATION QUALIFIER: =
IC50 (µM): 29.3

COMPOUND: O=C(O)CCNC(=O)c1ncc2cc(Oc3ccccn3)ccc2c1O [Compound 25]
RELATION QUALIFIER: =
IC50 (µM): 44.6

COMPOUND: N#Cc1nc(C(=O)NC[C@H](N)C(=O)O)c(O)c2ccc(Oc3ccccc3)cc12 [Compound 86]
RELATION QUALIFIER: =
IC50 (µM): 51.9

COMPOUND: CC(C)(CNC(=O)c1ncc2cc(Sc3ccccc3)ccc2c1O)C(=O)O [Compound 127]
RELATION QUALIFIER: =
IC50 (µM): 63.1

COMPOUND: CCC(C)(CNC(=O)c1nc(C#N)c2cc(Oc3ccccc3)ccc2c1O)C(=O)O (stereo not drawn) [Compound 58]
RELATION QUALIFIER: =
IC50 (µM): 12.3

COMPOUND: N#Cc1nc(C(=O)NC(CC(=O)O)c2cccc(Cl)c2)c(O)c2ccc(Oc3ccccc3)cc12 (stereo not drawn) [Compound 165]
RELATION QUALIFIER: =
IC50 (µM): 28.1

COMPOUND: CC(C)(CNC(=O)c1nc(C#N)c2cc(Oc3cc(F)ccc3Cl)ccc2c1O)C(=O)O [Compound 31]
RELATION QUALIFIER: =
IC50 (µM): 4.2

COMPOUND: N#Cc1nc(C(=O)NCCCC(=O)O)c(O)c2ccc(Oc3ccccc3)cc12 [Compound 80]
RELATION QUALIFIER: =
IC50 (µM): 0.71

COMPOUND: N[C@@H](CNC(=O)c1ncc2cc(Oc3ccccc3)ccc2c1O)C(=O)O [Compound 9]
RELATION QUALIFIER: >
IC50 (µM): 200

COMPOUND: Cc1ccccc1Oc1ccc2c(C#N)nc(C(=O)NCC(C)(C)C(=O)O)c(O)c2c1 [Compound 155]
RELATION QUALIFIER: =
IC50 (µM): 42.1

COMPOUND: N#Cc1nc(C(=O)NCC2(C(=O)O)CCC2)c(O)c2ccc(Sc3ccccc3)cc12 [Compound 154]
RELATION QUALIFIER: =
IC50 (µM): 1.9

COMPOUND: CC(C)(CNC(=O)c1nc(C#N)c2cc(Oc3cccc4ccccc34)ccc2c1O)C(=O)O [Compound 43]
RELATION QUALIFIER: =
IC50 (µM): 1.73

COMPOUND: COc1ccc(Oc2ccc3c(O)c(C(=O)NC(C)(C)CC(=O)O)nc(C#N)c3c2)cc1 [Compound 21]
RELATION QUALIFIER: =
IC50 (µM): 9.4

COMPOUND: COc1ccc(Oc2ccc3c(O)c(C(=O)NCC(C)(C)C(=O)O)ncc3c2)cc1 [Compound 104]
RELATION QUALIFIER: =
IC50 (µM): 19.5

COMPOUND: CC(C)(CNC(=O)c1nc(C#N)c2ccc(Oc3ccccc3)cc2c1O)C(=O)O [Compound 123]
RELATION QUALIFIER: =
IC50 (µM): 183

COMPOUND: O=C(O)CCCCNC(=O)c1ncc2cc(Sc3ccccc3)ccc2c1O [Compound 114]
RELATION QUALIFIER: =
IC50 (µM): 86.6

COMPOUND: N#Cc1nc(C(=O)NCC2(C(=O)O)CCS(=O)(=O)CC2)c(O)c2ccc(Oc3ccccc3)cc12 [Compound 29]
RELATION QUALIFIER: =
IC50 (µM): 37.3

COMPOUND: O=C(O)CCNC(=O)c1ncc2ccc(Oc3ccccc3)cc2c1O [Compound 112]
RELATION QUALIFIER: =
IC50 (µM): 200

COMPOUND: N#Cc1nc(C(=O)N[C@@H](CC(=O)O)c2ccccc2)c(O)c2ccc(Oc3ccccc3)cc12 [Compound 47]
RELATION QUALIFIER: =
IC50 (µM): 30.2

COMPOUND: N#Cc1nc(C(=O)N[C@H](CC(=O)O)c2ccccc2)c(O)c2ccc(Oc3ccccc3)cc12 [Compound 48]
RELATION QUALIFIER: =
IC50 (µM): 50.1

COMPOUND: CC(C)(CNC(=O)c1nc(-c2cncc(F)c2)c2cc(Oc3ccccc3)ccc2c1O)C(=O)O [Compound 136]
RELATION QUALIFIER: =
IC50 (µM): 200

COMPOUND: N#Cc1nc(C(=O)NCCC(=O)C(=O)O)c(O)c2ccc(Oc3ccccc3)cc12 [Compound 56]
RELATION QUALIFIER: =
IC50 (µM): 1.8

COMPOUND: O=C(O)CCCCNC(=O)c1ncc2cc(Oc3c(F)cccc3F)ccc2c1O [Compound 100]
RELATION QUALIFIER: =
IC50 (µM): 200

# credit: patent US9409892B2
